target: T1, full length human AXL (Homo sapiens, UniProt P30530); assay: Flow cytometry binding to transfected HEK293T cells; conditions: at least 3 experiments
T1 construct: expression constructs for full length human AXL; expressed in transfected cells; host or cells: HEK293T
READOUT NAME: Binding EC50 (µg/mL) human AXL Average (s.d.)

Qu. Please look up its Binding EC50 (µg/mL) human AXL Average (s.d.): IgG1-AXL-726-M101L: point mutant of IgG1-AXL-726, VH SEQ ID NO:32, VL SEQ ID NO:33 (antibody, listed as Homo sapiens, V domains shown) VH: QVQLQQWGAGLLKPSETLSLTCAIDGGSFSGYYWSWIRQPPGKGLEWIGEISHSGRTNYNPSLKSRVTISIDTSKNQFSLKLSSVAAADTAVYYCARFITLIRGAIITHFDYWGQGALVTVSS VL: DIQMTQSPSSLSASVGDRVTITCRASQGISSWLAWYQQKPEKAPKSLIYAASSLQSGVPSRFSGSGSGTDFTLTISSLQPEDFATYYCQQYHSYPYTFGQGTKLEIK
Ans. 0.184 (0.117) µg/mL
